Test system: RXRa homodimer (NR concentration 180 nM)
Assay: PBM binding z-score (relative to random genomic background probes); higher = stronger binding; sequences stand for … in GC…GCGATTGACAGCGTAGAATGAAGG
Provide the reported PBM binding z-score of each item.
Answers are plain numbers.

See these solved cases before continuing.
>>> reported_measurement("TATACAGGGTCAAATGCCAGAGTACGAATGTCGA")
6.54
>>> reported_measurement("TCTTGTAGATCAATAGAGGTTACGAAAGTGCGCT")
1.54
>>> reported_measurement("CCTTACGGGTCACTGACAGGTTAAAGCATTTGGA")
5.63
>>> reported_measurement("AGAATGAGGCTAAGATCAGGGAAACAGAATACAT")
-0.046
>>> reported_measurement("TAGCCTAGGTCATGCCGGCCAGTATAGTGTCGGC")
2.62

Next up:
Return PBM binding z-score measured with RXRa homodimer (NR concentration 180 nM) given this sequence: CCTACTGGGCCATTCGGAGGTCATTGATCATATG
2.38

Each recorded value in this set is attributed to the supplement of paper PMC6555819.
